This listing pairs compounds with measured Pre-emergence action against ALOMY in %.
- System: ALOMY
- Protocol Summary: Pre-emergence herbicidal action against ALOMY
- Format: in vivo, Alopecurus myosuroides
- Reported Conditions: 320 g/ha, scored visually after 3 weeks vs untreated controls
The reply should be a number in %, with the unit left off.

Compound	Uom	Number
CC#Cc1cc(F)c(C2=C(OC(=O)C(C)C)C3(CCC(COCC)C3)NC2=O)c(OC)c1 (stereo not shown) [Example P-64]	%	100
C=CCOCC1CCC2(C1)NC(=O)C(c1c(C)cc(C#CC)cc1Cl)=C2OC(=O)OCC (stereo not shown) [Example P-72]	%	90
CC#Cc1cc(C)c(C2=C(OC(=O)OCC)C3(CCC(COCCC)C3)NC2=O)c(OC)c1 (stereo not shown) [Example P-81]	%	100

Consider the additional compound presented here.
IN: Name the reported Pre-emergence action against ALOMY in % value associated with the compound CC#Cc1cc(C)c(C2=C(OC(=O)OCC)C3(CCC(COCC)C3)NC2=O)c(F)c1 (stereo not shown) [Example P-54]
OUT: 100
